- measurement.notes: Intrinsic clearance in rat liver microsomes after 0.5 to 4 hrs by UPLC-MS analysis
- Assay type: ADME
- run.conditions: read-out: CLH
measurement.type: CLint scaled (mL/min/kg)

COc1cc2ncnc(-n3nc(-c4ccccn4)nc3N)c2cc1OC : 57.8
COc1cc2ncnc(-n3nc(-c4ccccn4)nc3N)c2cc1OCCCNC(=O)OC(C)C : 45.1

* * *

- measurement.notes: Half life in human liver microsomes by UPLC-MS analysis
- Type: ADME
measurement.type: half-life (h)

COc1cc2ncnc(-n3nc(-c4ccccn4)nc3N)c2cc1OC : 3.4

I. COc1cc2ncnc(-n3nc(-c4ccccn4)nc3N)c2cc1OCCCNC(=O)OC(C)C
II. COCCOc1cc2ncnc(-n3nc(-c4ccccn4)nc3N)c2cc1OCCOC
Query string: Choose between I and II : whose measured half-life value is numerically larger? In your reply, give the label of the chosen option.
Result string: II
(II: 1.6 h, I: 1.1 h)
